test system: MCF7; assay: Antiproliferative activity against human MCF7 cells expressing neo/Her2 after 3 days by CellTiter-Glo luminescent cell viability assay; conditions: MCF7, 72 h
pIC50: −log10 of the molar value.
Entries annotated with measured pIC50
quantity: pIC50

entrySmiles: C[C@H]1COCCN1c1nc(-c2ccc(NC(=O)Nc3cnn(C)c3)cc2)nc2c1COC2(C)C
observed: 6.80
--
entrySmiles: CCNC(=O)Nc1ccc(-c2nc(N3CCOCC3)c3c(n2)[C@@](C)(CO)OC3)cc1
observed: 5.77
--
entrySmiles: CCNC(=O)Nc1ccc(-c2nc(N3C[C@H]4CC[C@@H](C3)O4)c3c(n2)[C@@](C)(CCO)OC3)cc1
observed: 6.80
--
entrySmiles: CCNC(=O)Nc1ccc(-c2nc(N3CCOCC3)c3c(n2)[C@](C)(CC(C)(C)O)OC3)cc1
observed: 7.57
--
entrySmiles: CCNC(=O)Nc1ccc(-c2nc(N3CCOCC3)c3c(n2)[C@@](C)(CCO)OC3)cc1
observed: 6.31
--
entrySmiles: C[C@H]1COCCN1c1nc(-c2ccc(NC(=O)NCCC#N)cc2)nc2c1COC2(C)C
observed: 6.59
--
entrySmiles: CCNC(=O)Nc1ccc(-c2nc(N3CCOC[C@@H]3C)c3c(n2)[C@](C)(CCC#N)OC3)cc1
observed: 6.71
--
entrySmiles: CCNC(=O)Nc1ccc(-c2nc(N3CCOC[C@@H]3C)c3c(n2)[C@@](C)(CCO)OC3)cc1
observed: 6.29
--
entrySmiles: C[C@H]1COCCN1c1nc(-c2ccc(Nc3cccc(=O)[nH]3)cc2)nc2c1COC2(C)C
observed: 6.92

###

Readings of F for the listed compounds
test system: Mus musculus; experiment: Oral bioavailability in mouse at 5 mg/kg; format: ADME, organism-based; conditions: in vivo

entrySmiles: CCNC(=O)Nc1ccc(-c2nc(N3CCOC[C@@H]3C)c3c(n2)[C@@](C)(CC(C)(C)O)OC3)cc1
F, %: 73
--
entrySmiles: CCNC(=O)Nc1ccc(-c2nc(N3CCOCC3)c3c(n2)[C@](C)(CC(C)(C)O)OC3)cc1
F, %: 55
--
entrySmiles: CCNC(=O)Nc1ccc(-c2nc(N3CCOC[C@@H]3C)c3c(n2)[C@@](C)(CCO)OC3)cc1
F, %: 65

###

Collected fraction unbound values appear next to each entry.
test: Plasma protein binding in human; assay type: ADME, cell-free; settings: read-out: PPB (converted)
quantity: fraction unbound

entrySmiles: CCNC(=O)Nc1ccc(-c2nc(N3CCOC[C@@H]3C)c3c(n2)[C@@](C)(CCO)OC3)cc1
observed: 0.14

entrySmiles: CCNC(=O)Nc1ccc(-c2nc(N3CCOC[C@@H]3C)c3c(n2)[C@](C)(CC(C)(C)O)OC3)cc1
observed: 0.18

entrySmiles: CCNC(=O)Nc1ccc(-c2nc(N3C[C@H]4CC[C@@H](C3)O4)c3c(n2)[C@](C)(CCO)OC3)cc1
observed: 0.27

entrySmiles: CCNC(=O)Nc1ccc(-c2nc(N3CCOC[C@@H]3C)c3c(n2)[C@@](C)(CC(C)(C)O)OC3)cc1
observed: 0.34

entrySmiles: CCNC(=O)Nc1ccc(-c2nc(N3CCOCC3)c3c(n2)C(C)(C)OC3=O)cc1
observed: 0.02

entrySmiles: CCNC(=O)Nc1ccc(-c2nc(N3CCOC[C@@H]3C)c3c(n2)[C@](C)(CCO)OC3)cc1
observed: 0.13

entrySmiles: CCNC(=O)Nc1ccc(-c2nc(N3CCOCC3)c3c(n2)[C@](C)(CCO)OC3)cc1
observed: 0.22

entrySmiles: CCNC(=O)Nc1ccc(-c2nc(N3CCOC[C@@H]3C)c3c(n2)[C@](C)(CCN(C)C)OC3)cc1
observed: 0.41

entrySmiles: C[C@H]1COCCN1c1nc(-c2ccc(Nc3cccc(=O)[nH]3)cc2)nc2c1COC2(C)C
observed: 0.02

###

assay: Plasma protein binding in human; format: ADME, cell-free; conditions: read-out: PPB (converted)
Documented fraction unbound across a set of compounds
quantity: fraction unbound

entrySmiles: CCNC(=O)Nc1ccc(-c2nc(N3CCOC[C@@H]3C)c3c(n2)C(C)(C)OC3)cc1
quantity: fraction unbound
observed: 0.14

entrySmiles: C[C@H]1COCCN1c1nc(-c2ccc(NC(=O)NCCO)cc2)nc2c1COC2(C)C
quantity: fraction unbound
observed: 0.28

entrySmiles: CCNC(=O)Nc1ccc(-c2nc(N3CCOCC3)c3c(n2)[C@](C)(CC(C)(C)O)OC3)cc1
quantity: fraction unbound
observed: 0.23

###

# Lookup of reported clearance keyed by entry
test: Clearance in mouse at 1 mg/kg, iv; type: ADME, organism-based; design: dose 1 mg/kg, route intravenous; settings: in vivo

entrySmiles: C[C@H]1COCCN1c1nc(-c2ccc(NC(=O)NCCO)cc2)nc2c1COC2(C)C
clearance, mL/min/kg: 53
//
entrySmiles: CCNC(=O)Nc1ccc(-c2nc(N3CCOC[C@@H]3C)c3c(n2)C(C)(C)OC3)cc1
clearance, mL/min/kg: 46
//
entrySmiles: CCNC(=O)Nc1ccc(-c2nc(N3CCOC[C@@H]3C)c3c(n2)[C@](C)(CCN(C)C)OC3)cc1
clearance, mL/min/kg: 76
//
entrySmiles: C[C@H]1COCCN1c1nc(-c2ccc(Nc3cccc(=O)[nH]3)cc2)nc2c1COC2(C)C
clearance, mL/min/kg: 44

###

assay: Plasma protein binding in rat; format: ADME, cell-free; settings: read-out: PPB (converted)
Items are presented alongside their recorded fraction unbound.
quantity: fraction unbound

entrySmiles: C[C@H]1COCCN1c1nc(-c2ccc(Nc3cccc(=O)[nH]3)cc2)nc2c1COC2(C)C
observed: 0.04

entrySmiles: CCNC(=O)Nc1ccc(-c2nc(N3CCOC[C@@H]3C)c3c(n2)[C@@](C)(CCO)OC3)cc1
observed: 0.21

entrySmiles: CCNC(=O)Nc1ccc(-c2nc(N3CCOC[C@@H]3C)c3c(n2)[C@@](C)(CC(C)(C)O)OC3)cc1
observed: 0.12

entrySmiles: CCNC(=O)Nc1ccc(-c2nc(N3CCOC[C@@H]3C)c3c(n2)[C@](C)(CC(C)(C)O)OC3)cc1
observed: 0.22

entrySmiles: CCNC(=O)Nc1ccc(-c2nc(N3CCOC[C@@H]3C)c3c(n2)C(C)(C)OC3)cc1
observed: 0.08

entrySmiles: CCNC(=O)Nc1ccc(-c2nc(N3C[C@H]4CC[C@@H](C3)O4)c3c(n2)[C@](C)(CCO)OC3)cc1
observed: 0.26

entrySmiles: CCNC(=O)Nc1ccc(-c2nc(N3CCOC[C@@H]3C)c3c(n2)[C@](C)(CCN(C)C)OC3)cc1
observed: 0.33

entrySmiles: CCNC(=O)Nc1ccc(-c2nc(N3CCOCC3)c3c(n2)[C@](C)(CCO)OC3)cc1
observed: 0.24

###

test system: MCF7; test: Antiproliferative activity against human MCF7 cells expressing neo/Her2 after 3 days by CellTiter-Glo luminescent cell viability assay; conditions: MCF7, 72 h
quantity: log10(IC50) (log10 of the value in nM)

entrySmiles: C[C@H]1COCCN1c1nc(-c2ccc(NC(=O)NCCO)cc2)nc2c1COC2(C)C
log10(IC50): 1.82
//
entrySmiles: CCNC(=O)Nc1ccc(-c2nc(N3C[C@H]4CC[C@@H](C3)O4)c3c(n2)[C@](C)(CCO)OC3)cc1
log10(IC50): 1.34
//
entrySmiles: CCNC(=O)Nc1ccc(-c2nc(N3CCOCC3)c3c(n2)[C@](C)(CO)OC3)cc1
log10(IC50): 2.45
//
entrySmiles: CCNC(=O)Nc1ccc(-c2nc(N3CCOC[C@@H]3C)c3c(n2)[C@](C)(CCO)OC3)cc1
log10(IC50): 1.18
//
entrySmiles: CCNC(=O)Nc1ccc(-c2nc(N3CCOCC3)c3c(n2)[C@@](C)(CC(C)(C)O)OC3)cc1
log10(IC50): 2.23
//
entrySmiles: C[C@H]1COCCN1c1nc(-c2ccc(NC(=O)NC3COC3)cc2)nc2c1COC2(C)C
log10(IC50): 2.68
//
entrySmiles: CCNC(=O)Nc1ccc(-c2nc(N3CCOC[C@@H]3C)c3c(n2)[C@](C)(CCOC)OC3)cc1
log10(IC50): 2.11
//
entrySmiles: CCNC(=O)Nc1ccc(-c2nc(N3CCOC[C@@H]3C)c3c(n2)[C@](C)(CC(C)(C)O)OC3)cc1
log10(IC50): 1.88
//
entrySmiles: CCNC(=O)Nc1ccc(-c2nc(N3CCOC[C@@H]3C)c3c(n2)[C@](C)(CC2CC2)OC3)cc1
log10(IC50): 2.53
